Reference source for all entries: ChEMBL document CHEMBL1201862

# Tested on: LOX IMVI
# measurement-description: NCI tumour cell line growth inhibition, 48 h
Active and inactive are the calls of the source. Rule as the data show it: active = GI50 up to about 1.1 µM and inactive = higher.
Pick one: y for active, n for inactive

Worked cases, answers included:
INSERT INTO results (compound, subject_of_test, category) VALUES
  ('CCCCCCCCCCCCCCCC(=O)NCC(COP(=O)([O-])OCC[N+](C)(C)C)OCC (centres undefined)', 'LOX IMVI', 'n'),
  ('CC(=O)NC1C(OCc2ccccc2)OC(CO)C(O)C1OC(C)C(=O)NC(C(=O)NC(CCC(=O)NCCCC(=O)Nc1ccc2c(c1)CN1C(=O)c3ccccc3C1=N2)C(N)=O)C(C)C (centres undefined)', 'LOX IMVI', 'n'),
  ('Cc1ccc(C(=O)OC[C@H]2CC[C@@H](n3cc(N(C)C4CCCCC4)c(=O)[nH]c3=O)O2)cc1', 'LOX IMVI', 'n'),
  ('Cc1cc(C)c(C(=O)O)c(SSc2cc(C)cc(C)c2C(=O)O)c1', 'LOX IMVI', 'n'),
  ('COC(=O)[C@@H]1COC(=O)N1', 'LOX IMVI', 'n');

Query string: GET /call?item= Cn1cnc([N+](=O)[O-])c1Sc1nnnn1C returns the recorded outcome of this test.
Result string: n

Query string: GET /call?item= O=C(NNc1ccnc2cc(Cl)ccc12)/C(=C\c1ccccc1Cl)NC(=O)c1ccccc1 returns the recorded outcome of this test.
Result string: n

Query string: GET /call?item= C=C1CC(COc2ccc3c(C)cc(=O)oc3c2)(c2ccccc2)OC1=O (centres undefined) returns the recorded outcome of this test.
Result string: n

Query string: GET /call?item= CCN1C(=O)c2ccccc2C1(O)c1ccc(Cl)cc1 (centres undefined) returns the recorded outcome of this test.
Result string: n

Query string: GET /call?item= O=C(CC(C(=O)c1cccs1)c1cccs1)c1ccccc1Cl (centres undefined) returns the recorded outcome of this test.
Result string: n

Query string: GET /call?item= CCOC(=O)c1c2ccc(/C=C/c3ccccc3)ccc-2c(C(=O)OCC)c1N returns the recorded outcome of this test.
Result string: n

Query string: GET /call?item= O=C(/C=C/c1ccc(O)c(O)c1)c1cc(O)cc(O)c1 returns the recorded outcome of this test.
Result string: n

Query string: GET /call?item= CN(C(=O)c1ccco1)C(=S)N1CCN(c2ccccc2)CC1 returns the recorded outcome of this test.
Result string: n

Query string: GET /call?item= CC1(C)CC(=O)c2c(nc3c(ccc4ccccc43)c2-c2ccc(NC(=O)CCCCC(=O)Nc3ccc(-c4c5c(nc6c4ccc4ccccc46)CC(C)(C)CC5=O)cc3)cc2)C1 returns the recorded outcome of this test.
Result string: n

Query string: GET /call?item= C[N+]1(c2ccccc2)C=C(c2ccccc2)SC1=S (centres undefined) returns the recorded outcome of this test.
Result string: n
